system: FXR:RXRa (NR concentration 270 nM, RXRa partner concentration 90 nM); assay: PBM binding z-score (relative to random genomic background probes); higher = stronger binding; sequences stand for … in GC…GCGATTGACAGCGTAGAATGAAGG
Answer Condition not met if PBM binding z-score is under 0.8, and Condition met if it is 0.8 or more.

Check if PBM binding z-score >= 0.8 (inclusive). Item: CTCGAAAGGTCGGTTGAGTTGAGTATACGGATAA
Condition met

Check if PBM binding z-score >= 0.8 (inclusive). Item: AGAATGAGGTTACCAAAGATCCGGGAAACGCTTG
Condition met

Check if PBM binding z-score >= 0.8 (inclusive). Item: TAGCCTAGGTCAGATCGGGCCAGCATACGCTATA
Condition met

Check if PBM binding z-score >= 0.8 (inclusive). Item: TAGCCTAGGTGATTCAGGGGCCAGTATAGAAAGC
Condition not met

Check if PBM binding z-score >= 0.8 (inclusive). Item: TCTTGTAGATCAAGCAGGTCAAGAAAGCCTGAGT
Condition met

Check if PBM binding z-score >= 0.8 (inclusive). Item: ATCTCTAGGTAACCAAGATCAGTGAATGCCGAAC
Condition not met

Check if PBM binding z-score >= 0.8 (inclusive). Item: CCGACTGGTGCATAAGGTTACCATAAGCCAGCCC
Condition not met

Check if PBM binding z-score >= 0.8 (inclusive). Item: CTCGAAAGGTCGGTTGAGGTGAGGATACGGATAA
Condition met

Check if PBM binding z-score >= 0.8 (inclusive). Item: GCTCGGAGGACAAGGTCAGAGCGTTGTCCGTAGA
Condition met

Check if PBM binding z-score >= 0.8 (inclusive). Item: TCGAGTAGGTTAGTCGGGGCATTCCGCCAACATA
Condition not met

Check if PBM binding z-score >= 0.8 (inclusive). Item: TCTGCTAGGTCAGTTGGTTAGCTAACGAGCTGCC
Condition met

* * *

system: PPARg:RXRa DBDmut IVT, anti-RXR (DBD mutation: RXRa K156A/R161A, NR concentration 270 nM, RXRa partner concentration 90 nM); assay: PBM binding z-score (relative to random genomic background probes); higher = stronger binding; sequences stand for … in GC…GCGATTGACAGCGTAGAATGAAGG
# thresholds on PBM binding z-score define classes: low (below 2), mid (2 to below 4), high (4 or more)

Kindly state the category for this sequence: TATACAGGGTCAAAGCCCAGAGTACGAATGTCGA
mid

Kindly state the category for this sequence: CCGACTGGGGCAAAGTTTACCATACTCAGTACGA
high

Kindly state the category for this sequence: ATCTCTAGGTAACAAGTTCAGCGAAAGAGAGGAC
mid

Kindly state the category for this sequence: CCTACTGGGCCATCAGGTCATTCATATCAACGTT
high

Kindly state the category for this sequence: TCTATGAGTTGAAGGGCAACCGACGAGTCCGTTT
low

Kindly state the category for this sequence: GCTATTAGTTGAAAGGGCGACCGAATGATTCTCG
low

Kindly state the category for this sequence: CCTTACGGGTCACTGCAGGTTATAGCATCGGAGT
mid

Kindly state the category for this sequence: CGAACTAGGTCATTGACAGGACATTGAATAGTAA
high

Kindly state the category for this sequence: TCTTGTAGATCAACACGAGGTTAAGAAAGATCGA
low

Kindly state the category for this sequence: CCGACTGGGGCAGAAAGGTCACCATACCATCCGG
low

Kindly state the category for this sequence: TCAGACAGGTGTAGGTAACTCAGGTACGCAGTCG
mid

Kindly state the category for this sequence: AGTCAAAGTTCAGGACCAGGTAACGTAAAGCACG
low

Kindly state the category for this sequence: CAAACTATGTCACCGGAAGGTCAAAGTCCGCATG
high

Kindly state the category for this sequence: CGTCCAAGGTCAGAGCGGTCAGTGAATGCCGAGT
mid

Kindly state the category for this sequence: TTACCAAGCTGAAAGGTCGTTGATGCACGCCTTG
low

Kindly state the category for this sequence: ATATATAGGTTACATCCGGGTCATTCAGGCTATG
high

Kindly state the category for this sequence: ATTAGTTGGTCAGCTGAGGTCACACACAATTCGG
mid

Kindly state the category for this sequence: TCATATAGGTAAATGCTGGGTGAAAGTCCGATCT
high

Kindly state the category for this sequence: CAAACTAGGTCACCGGAAGGTTAAAGTCCGCATG
high

Kindly state the category for this sequence: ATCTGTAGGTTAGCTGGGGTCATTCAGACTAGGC
mid

Kindly state the category for this sequence: TTACCAAGGTGAAAGCTCGTTGATGCACGCCTTG
low

Kindly state the category for this sequence: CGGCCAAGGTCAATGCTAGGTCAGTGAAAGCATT
mid

Kindly state the category for this sequence: ATCTCTAGGTAACGAAGTTCAGTGAATGCCGAAC
mid

Kindly state the category for this sequence: CCTCAGAGGACAACAGGAGGTCAGAGCTGCCAGA
low

* * *

system: PPARg:RXRa IVT, anti-PPARg (NR concentration 270 nM, RXRa partner concentration 90 nM); experiment: PBM binding z-score (relative to random genomic background probes); higher = stronger binding; sequences stand for … in GC…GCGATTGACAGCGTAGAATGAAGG
Field: PBM binding z-score. Provide a value for each of the sequences that follow.
Lab note: jot the number down without any unit.

I am curious: what PBM binding z-score value has been reported for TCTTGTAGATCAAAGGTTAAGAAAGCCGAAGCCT ?
3.55

I am curious: what PBM binding z-score value has been reported for AGTCAAAGTTCGCTAGGTAACGTAAGATTCAGCT ?
1.13

I am curious: what PBM binding z-score value has been reported for TCAGACAGGCGAAGGTAACTCAGGTACGCAGTCG ?
-0.431

I am curious: what PBM binding z-score value has been reported for CTCGGAAGGTCGTGCTCAGGTGAGTATACCAAAC ?
0.881

I am curious: what PBM binding z-score value has been reported for TATACAGGGTCAAAGGCCAGACTACGAATGTCGA ?
5.03

I am curious: what PBM binding z-score value has been reported for TTACCAAGATGAAAGGTCGTTGATGCACGCCTTG ?
1.47

* * *

tested on: RARa:RXR (NR concentration 270 nM, RXRa partner concentration 90 nM); test: PBM binding z-score (relative to random genomic background probes); higher = stronger binding; sequences stand for … in GC…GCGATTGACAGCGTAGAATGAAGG
test-readout: PBM binding z-score
Lab note: jot the number down without any unit.

I am curious: what PBM binding z-score value has been reported for TCTAGTTGGTCACGGAGGTCACGCACGACGGGTA ?
5.23

I am curious: what PBM binding z-score value has been reported for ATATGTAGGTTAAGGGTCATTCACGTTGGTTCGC ?
5.91

I am curious: what PBM binding z-score value has been reported for TCTTGTAGATCAATCAGGTTAAGAAAGCCTGAGT ?
0.669

I am curious: what PBM binding z-score value has been reported for ATCGAAAGGTCGAGGTGACTATAGAGAAAGGGAA ?
3.53

I am curious: what PBM binding z-score value has been reported for TATACAGGGTAAAAGGCCAGAGTACGAATGTCGA ?
0.32

I am curious: what PBM binding z-score value has been reported for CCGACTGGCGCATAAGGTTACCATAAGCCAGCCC ?
0.776

I am curious: what PBM binding z-score value has been reported for GCGGCTAGGTCAGGTTGGTCAGCTAACGGGTACG ?
0.825

I am curious: what PBM binding z-score value has been reported for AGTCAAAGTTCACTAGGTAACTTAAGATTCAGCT ?
3.07

I am curious: what PBM binding z-score value has been reported for ATATGTAGGTTCAGGGTCATTCAGGTTGGTTCGC ?
5.15

I am curious: what PBM binding z-score value has been reported for GCTGCTAGGTCAGGTTCGTCAGCTAACGGGTACG ?
0.887

I am curious: what PBM binding z-score value has been reported for GCATATAGGTAATACAAGGTGAAAGACCGATTGT ?
1.49

I am curious: what PBM binding z-score value has been reported for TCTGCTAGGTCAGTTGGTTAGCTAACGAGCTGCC ?
0.432

I am curious: what PBM binding z-score value has been reported for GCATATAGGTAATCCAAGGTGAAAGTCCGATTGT ?
1.53

I am curious: what PBM binding z-score value has been reported for TCATATTGGTAATACAGGTGAAAGTCGGCATCTA ?
1.09

I am curious: what PBM binding z-score value has been reported for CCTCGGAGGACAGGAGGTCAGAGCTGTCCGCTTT ?
2.05

I am curious: what PBM binding z-score value has been reported for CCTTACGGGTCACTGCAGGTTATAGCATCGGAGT ?
4.05

I am curious: what PBM binding z-score value has been reported for CCTTACGGGTCACGAGGTTATAGCGCGACGAGCG ?
6.3

I am curious: what PBM binding z-score value has been reported for CCAGGCAGGTGAGAAGGTAACTCAGCCTCGATTA ?
-0.0086

I am curious: what PBM binding z-score value has been reported for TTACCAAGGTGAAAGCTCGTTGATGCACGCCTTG ?
0.109

I am curious: what PBM binding z-score value has been reported for GCGACTGGCGCATCAGCAGGTTACCATAACTTAA ?
-0.34

I am curious: what PBM binding z-score value has been reported for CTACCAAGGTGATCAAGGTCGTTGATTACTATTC ?
1.33

I am curious: what PBM binding z-score value has been reported for TAGCCTAGGTCATGTGGGCCAGTATAGTGTCGGC ?
2.33

I am curious: what PBM binding z-score value has been reported for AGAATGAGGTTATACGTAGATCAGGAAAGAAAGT ?
1.71

I am curious: what PBM binding z-score value has been reported for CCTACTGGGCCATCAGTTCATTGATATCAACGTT ?
0.106

I am curious: what PBM binding z-score value has been reported for GCATATAGGGAATACAAGGTGAAAGTCCGATTGT ?
1.58

I am curious: what PBM binding z-score value has been reported for AGACAAAGTTCATCTAGGTAACGTAAGATATGCT ?
4.17
